TEST_SUMMARY: qHTS for Activators of Parkin Expression: LOPAC Validation Assay (FLuc Reporter) (AID 720573)
TEST_CONTEXT: Cell line, PRKN promoter firefly luciferase reporter, vehicle wells = 0; series mostly up to 46.1 µM
Inconclusive results are not listed. Calls of active or inactive are those of the source. Calls follow the shape of the dose curve; as a rule, active = well fitted activation curve with a large enough effect; inconclusive = small, poorly fitted or top-dose-only effect; inactive = no such curve, though single readings can be large or run the other way.
PROPERTY: outcome

Answered examples (10):
COMPOUND	outcome
CN1CCN(CCCN2c3ccccc3Sc3ccc(C(F)(F)F)cc32)CC1	inactive
CCC(C)N(C)C(=O)c1cc2ccccc2c(-c2ccccc2Cl)n1 (configuration not stated)	inactive
NCCCC(N)(C(=O)O)C(F)F (configuration not stated)	inactive
Cc1[nH]c(=O)c(C#N)cc1-c1ccncc1	inactive
CCOC(=O)N1CCC(=C2c3ccc(Cl)cc3CCc3cccnc32)CC1	inactive
CCOC(=O)C1=C[C@]2(CC)CCCN3CCc4c(n1c1ccccc41)[C@@H]32	inactive
Cc1cccc(-c2[nH]c(C(C)(C)C)nc2-c2ccc3nccnc3c2)n1	inactive
O=NN(CCCl)C(=O)NCCCl	inactive
Cc1ccc(N(CC2=NCCN2)c2cccc(O)c2)cc1	inactive
CCCCNc1cc(C(=O)O)cc(S(N)(=O)=O)c1Oc1ccccc1	inactive

Ask: // query outcome value for entry `c1ccc([C@H]2CN3CCSC3=N2)cc1`
Reply: inactive

Ask: // query outcome value for entry `O=C1CCc2cc(OCCCCc3nnnn3C3CCCCC3)ccc2N1`
Reply: inactive
